Data credit: patent US7388010B2

- system_name: cyclin D2-Cdk4 (Homo sapiens)
- Sequence (P11802 whole entry): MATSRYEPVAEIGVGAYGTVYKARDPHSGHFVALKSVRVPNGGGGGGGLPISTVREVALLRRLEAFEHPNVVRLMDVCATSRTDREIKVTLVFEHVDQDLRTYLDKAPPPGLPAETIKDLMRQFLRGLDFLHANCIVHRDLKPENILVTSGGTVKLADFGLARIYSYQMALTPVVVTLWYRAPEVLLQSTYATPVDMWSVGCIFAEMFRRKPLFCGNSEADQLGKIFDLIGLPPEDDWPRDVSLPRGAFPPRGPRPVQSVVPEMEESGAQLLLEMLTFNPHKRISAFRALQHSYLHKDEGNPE
- Sequence (P30279 whole entry partner): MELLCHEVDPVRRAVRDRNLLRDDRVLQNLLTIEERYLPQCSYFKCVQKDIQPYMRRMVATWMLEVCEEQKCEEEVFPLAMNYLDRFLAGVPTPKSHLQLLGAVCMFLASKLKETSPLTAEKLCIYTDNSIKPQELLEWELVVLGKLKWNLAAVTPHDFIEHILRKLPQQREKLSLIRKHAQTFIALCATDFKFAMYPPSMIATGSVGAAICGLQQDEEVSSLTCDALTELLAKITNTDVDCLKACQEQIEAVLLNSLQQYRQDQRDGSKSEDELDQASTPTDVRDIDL
- procedure_text: Cyclin D2-Cdk4 inhibitory activity (33P-ATP phosphorylation of RB peptide substrate)
- measurement_parameters: 50 μM ATP, 100 μM substrate peptide, 30° C., 45 minutes; read-out: IC50 against cyclin D2-Cdk4 activity
pIC50: −log10 of the molar value.
assay_endpoint: pIC50

molecule	reading
C[C@@H]1C[C@H]2CN1CCn1[nH]c3c(cccc3c1=O)-c1nc3c(cc(N4CCCCCC4)cc3[nH]c1=O)O2 [[127]]	7.96
CO[C@@H]1CCCN(Cc2cc3c4nc(c(=O)[nH]c4c2)-c2cccc4c(=O)n(sc24)CCN2CCC(CC2)O3)C1 [[38]]	7.92
O=c1[nH]c2cc(CN3CCC(F)CC3)cc3c2nc1-c1cccc2c(=O)n([nH]c12)CCCCCO3 [[65]]	8.16
C[C@@H]1C[C@H]2CN1CCn1[nH]c3c(cccc3c1=O)-c1nc3c(cc(N4CCN(c5ccccc5F)CC4)cc3[nH]c1=O)O2 [[128]]	8.46
O=c1[nH]c2cc(CN3CCCCC3)cc3c2nc1-c1cccc2c(=O)n(sc12)CCN1CC[C@@H](C1)O3 [[31]]	8.19
C[C@@H]1CC2CN1CCn1[nH]c3c(cccc3c1=O)-c1nc3c(cc(-c4ncccn4)cc3[nH]c1=O)O2 (stereo partly shown) [[83]]	8.70
C[C@@H]1C[C@H]2CN1CCn1[nH]c3c(cccc3c1=O)-c1nc3c(cc(-c4ccc(OC(F)(F)F)cc4)cc3[nH]c1=O)O2 [[118]]	7.85
